B1: tRNA (parent)
chain: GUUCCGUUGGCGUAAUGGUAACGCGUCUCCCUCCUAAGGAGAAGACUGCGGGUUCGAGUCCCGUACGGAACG

- Variants of: B1
- measurement.protocol: yeast fitness relative to wild type (ratio to wild type); higher = fitter; tRNA-Arg(CCU), competitive growth, 37 C, YPD
Fewer inactive variants are shown than the library holds.
value.kind: yeast fitness

>>> df
                   variant_descriptor     value_kind  sign_qualifier  recorded_number
 0                      C4U C46U A69U  yeast fitness               =             1.16
 1                      C5U A20C A36G  yeast fitness               =            0.632
 2                  U2C U7G U32A U59A  yeast fitness               =            0.501
 3                      C4A G39C C66U  yeast fitness               ≤              0.5
 4           G10C G41C C62U C66G A70G  yeast fitness               ≤              0.5
 5                      C4A G23A C33G  yeast fitness               =            0.655
 6                  G6C U7A C34U C61U  yeast fitness               =            0.658
 7                C29A C30U C33G C46U  yeast fitness               ≤              0.5
 8           U28A C29G C33A A42U A70U  yeast fitness               =            0.531
 9                 U8C C29U U35G C62U  yeast fitness               ≤              0.5
10            U3C C27U C46A G50A C62U  yeast fitness               =            0.595
11  C5A C24U G25C C30G G50C G56A C66U  yeast fitness               ≤              0.5
12                 U8A A45G C61G C62U  yeast fitness               ≤              0.5
13                     A20G C27U C66U  yeast fitness               =            0.689
14                     A20G A36U C66A  yeast fitness               =            0.529
15                      U7C C31G A65U  yeast fitness               =            0.664
16                           C5U A65C  yeast fitness               =            0.922
17                G17A C30G A45G C61G  yeast fitness               ≤              0.5
18                          G52C C66G  yeast fitness               =              0.6

Data credit: the RNAGym collection of RNA variant scans (doi:10.1126/science.aae0568)
